# credit: patent US20240109877A1

Target: BTK in mouse bone marrow (Mus musculus (Mouse))
Sequence (P35991 whole entry): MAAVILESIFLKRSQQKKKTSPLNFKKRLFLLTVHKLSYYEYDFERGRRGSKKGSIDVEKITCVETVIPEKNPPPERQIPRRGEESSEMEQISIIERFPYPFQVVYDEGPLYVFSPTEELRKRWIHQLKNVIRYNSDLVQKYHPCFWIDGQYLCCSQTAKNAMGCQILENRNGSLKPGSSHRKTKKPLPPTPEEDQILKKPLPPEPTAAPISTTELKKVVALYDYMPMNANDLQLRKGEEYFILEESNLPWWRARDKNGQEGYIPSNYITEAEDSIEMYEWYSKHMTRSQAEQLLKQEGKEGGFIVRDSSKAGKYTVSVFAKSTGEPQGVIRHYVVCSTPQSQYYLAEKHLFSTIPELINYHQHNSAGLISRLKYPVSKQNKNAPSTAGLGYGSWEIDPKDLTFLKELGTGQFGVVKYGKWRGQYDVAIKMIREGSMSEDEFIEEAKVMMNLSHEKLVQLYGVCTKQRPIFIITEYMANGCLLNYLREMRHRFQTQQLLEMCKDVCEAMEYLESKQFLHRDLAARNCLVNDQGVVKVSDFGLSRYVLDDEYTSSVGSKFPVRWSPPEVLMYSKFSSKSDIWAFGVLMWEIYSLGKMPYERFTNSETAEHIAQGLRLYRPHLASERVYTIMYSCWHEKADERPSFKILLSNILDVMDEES
Test: Mouse Bone Marrow Assay (MSD ELISA of BTK degradation in mouse bone marrow)
Format: in vivo
Details: female C57BL/6J mice, single dose of Dose A, bone marrow collected after 24 hours, % remaining BTK in vehicle versus treated samples
Readout: Mouse Bone Marrow (%), % remaining BTK

Cc1cc(-c2cc(Nc3ccc(N4CCN(CCc5ccc(N6CCC(=O)NC6=O)cc5)C[C@@H]4C)cn3)ncn2)ccc1[C@@H](C)NC(=O)c1nc(C(C)(C)C)no1 [Example 1] ... 11
CC[C@@H]1CN(CCc2ccc(N3CCC(=O)NC3=O)cc2)CCN1c1ccc(Nc2cc(-c3ccc([C@@H](C)NC(=O)c4nc(C(C)(C)C)no4)c(C)c3)ncn2)nc1 [Example 8] ... 30

a. Cc1cc(-c2cc(Nc3ccc(N4CCN(CCc5ccc(N6CCC(=O)NC6=O)cc5)C[C@@H]4C(C)C)cn3)ncn2)ccc1[C@@H](C)NC(=O)c1nc(C(C)(C)C)no1 [Example 13]
b. Cc1cc(-c2cc(Nc3ccc(N4CCN(CCc5ccc(N6CCC(=O)NC6=O)c(F)c5)C[C@@H]4C)cn3)ncn2)ccc1[C@@H](C)NC(=O)c1nc(C(C)(C)C)no1 [Example 4]
q: // select label with min value of measured Mouse Bone Marrow (%), % remaining BTK from [ a , b ] Pick one and reply with its label.
a: b

A. Cc1c([C@@H](C)NC(=O)c2nc(C(C)(C)C)no2)ccc(-c2cc(Nc3ccc(N4CCN(CCc5ccc(N6CCC(=O)NC6=O)cc5)C[C@@H]4C)cn3)ncn2)c1F [Example 10]
B. Cc1cc(-c2cc(Nc3ccc(N4CCN(CCc5ccc(N6CCC(=O)NC6=O)cc5)CC4)cn3)ncn2)ccc1[C@@H](C)NC(=O)c1nc(C(C)(C)C)no1 [Example 3]
C. Cc1cc(-c2cc(Nc3ccc(CCN4CCN(c5ccc(N6CCC(=O)NC6=O)cc5)CC4)cn3)ncn2)ccc1[C@@H](C)NC(=O)c1nc(C(C)(C)C)no1 [Example 19]
q: Sort the molecules on Mouse Bone Marrow (%), % remaining BTK; start with the lowest figure. Put the labels in the requested order and write them down.
a: A, B, C

A. Cc1c([C@@H](C)NC(=O)c2nc(C(C)(C)C)no2)ccc(-c2cc(Nc3ccc(N4CCN(CCc5ccc(N6CCC(=O)NC6=O)cc5)CC4)cn3)ncn2)c1F [Example 11]
B. CC[C@H]1CN(CCc2ccc(N3CCC(=O)NC3=O)cc2)CCN1c1ccc(Nc2cc(-c3ccc([C@@H](C)NC(=O)c4nc(C(C)(C)C)no4)c(C)c3)ncn2)nc1 [Example 6]
q: // select label with min value of measured Mouse Bone Marrow (%), % remaining BTK from [ A , B ] Pick one and reply with its label.
a: B
(B: 19%, A: 29%)

P. CC[C@H]1CN(CCc2ccc(N3CCC(=O)NC3=O)c(F)c2)CCN1c1ccc(Nc2cc(-c3ccc([C@@H](C)NC(=O)c4nc(C(C)(C)C)no4)c(C)c3)ncn2)nc1 [Example 7]
Q. Cc1cc(-c2cc(Nc3ccc(N4CCN(CCc5ccc(N6CCC(=O)NC6=O)c(F)c5)C[C@H]4C)cn3)ncn2)ccc1[C@@H](C)NC(=O)c1nc(C(C)(C)C)no1 [Example 5]
q: Among P and Q , which shows a numerically higher Mouse Bone Marrow (%), % remaining BTK result? Pick one and reply with its label.
a: P
